- System: U-251
- method: NCI tumour cell line growth inhibition, 48 h
Calls of active or inactive are those of the source. Rule as the data show it: active = GI50 up to about 1.1 µM and inactive = higher.
Parameter call: string, one of 1 (yes) for active, 0 (no) for inactive

1. O=C(NCCCl)O/N=C/c1cccnc1 = 0 (no)
2. CC(C)c1oc(=O)cc2c1C(O)C1OC(=O)C3(C)C(O)C4OC4C2(C)C13 (stereo not given) = 0 (no)
3. COc1cc(C2C3=C(N=C4SC(C(C)=O)=C(C)N42)c2ccccc2CC3)cc(OC)c1OC (stereo not given) = 0 (no)

Please share the test call associated with O=C1N=CN=C2C=CC(Cl)=C(I)C12 (stereo not given) .
0 (no)

I'd appreciate the recorded outcome for "COc1cc(CN[C@H]2CCc3cc(OC)c(OC)c(OC)c3-c3ccc(SC)c(=O)cc32)cc(OC)c1" from this test.
1 (yes)

Per the assay record, what outcome was assigned to "O=[N+]([O-])c1ccc(Sc2c3ccccc3nc3ccccc23)cn1" ?
0 (no)

Lab log entry: CCOP(C)(=O)C(Cc1c[nH]c2ccccc12)C(=O)O (stereo not given) — outcome as called in the assay?
0 (no)

Dear colleague, could you share the recorded outcome for "COc1ccc(/C=C/C(=N/NC(=O)N/N=C(/C=C/c2ccc(OC)cc2)C(C)(C)CN2CCCCC2)C(C)(C)CN2CCCCC2)cc1" when you have a moment?
0 (no)

What outcome does the record of this test show for CC(=O)Nc1ccc(C(=O)NN2C(=O)C(Cl)C2c2cccc([N+](=O)[O-])c2)cc1 (stereo not given) ?
0 (no)

Assay outcome for "O=C1CCCC[C@H]1[C@H]1CCC[C@@H]([C@H]2CCCCC2=O)C1=O" : what was it?
0 (no)

----------
Items are presented alongside their recorded GI50.
- Test system: SF-268
- method: NCI tumour cell line growth inhibition, 48 h
Activity calls are given as the source filed them. Cut-off read from the data, not from the text of the source: active = GI50 up to about 1.1 µM and inactive = higher.

1) N#Cc1nc(COCCOCc2ccc(F)cc2)oc1N = > 100 µM (inactive)
2) CCCCCCCCCCCCCCCCOCC(Cl)COP(=O)(O)OP(=O)(O)OCC1OC(n2cnc3c(N)ncnc32)C(O)C1O (centres undefined) = > 100 µM (inactive)
3) S=c1nc(N2CCCCC2)ss1 = 21.1 µM (inactive)

Lab note: next compound to report on.
GI50 measured on "Clc1ccccc1C(n1ncc2ccccc21)n1ncc2ccccc21" = 99.3 µM (inactive)

----------
Each entry below carries its recorded GI50.
- Test system: MOLT-4
- method: NCI tumour cell line growth inhibition, 48 h
Activity calls are given as the source filed them. No stated cut-off is given here; in the data, active = GI50 up to about 1.1 µM and inactive = higher.

Look over these answered cases.
1. CNC(=S)N/N=C(\C)c1nc2cccnc2[nH]1 = 31.9 µM (inactive)
2. O=C(O)Cc1ccc(Nc2nc3ccccc3nc2C(=O)O)cc1 = > 100 µM (inactive)
3. Clc1cc2nsnc2c(Cl)n1 = 14.2 µM (inactive)
4. O=C(CCOS(=O)(=O)CF)N1CCN(C(=O)CCOS(=O)(=O)CF)CC1 = 3.03 µM (inactive)
5. O=C(Cc1ccccc1)Nc1nc2ccc(Cl)cc2c2nc(-c3ccco3)nn12 = > 100 µM (inactive)
6. C/C(=N\NC(N)=S)C(CN(CC(C)C)CC(C)C)C(=O)Nc1ccc(C)cc1C (configuration not stated) = > 100 µM (inactive)

Recorded GI50 (compound CON(C)C(=O)C(Cc1ccccc1)NC(=O)OC(C)(C)C (configuration not stated) ): > 100 µM (inactive)

Record "CC(=O)Oc1cc(/C=C/c2ccc(O)cc2)cc(OC(C)=O)c1" . Reported GI50: 16.8 µM (inactive)

According to the records, this compound "Cc1ccccc1NC(=O)c1nc(S)nc(N)c1-c1ccccc1C" displays GI50 of > 100 µM (inactive)

Given item "O=[N+]([O-])c1ccc(Sc2c3ccccc3nc3ccccc23)cn1" , the value recorded as its GI50 is 2.19 µM (inactive)

For "COC(=O)C(=O)Nc1cc2c3c(c1)Oc1cccc4c1C3(C)c1c(cccc1O2)O4" the compound record lists GI50 as 39.2 µM (inactive)

Memo: "S=c1nc(N2CCCCC2)ss1" , reported GI50: 12.4 µM (inactive)
